Here, each record is paired with measured IC50 data.
- Tested on: LG0703-F948-PDC spheroids with HUVEC/MSC, viability;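 further: spheroids exposed to compounds for seven days before readout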
- assay-procedure: Anticancer human tumor LG0703-F948-PDC patient-derived lung adenocarcinoma cell line growth inhibition [IpAb]
- cond: curve of first compound; second compound 10 µM

// solved cases for IC50 follow
* C=CC(=O)N1CCN(c2nc(=O)n(-c3c(C)ccnc3C(C)C)c3nc(-c4c(O)cccc4F)c(F)cc23)C(C)C1 (stereo not given) + CC(C)NCC(C(=O)N1CCN(c2ncnc3c2C(C)CC3O)CC1)c1ccc(Cl)cc1 | < 31.6 nM
* CC(C)(C)c1cnc(CSc2cnc(NC(=O)C3CCNCC3)s2)o1 + CC(C)NCC(C(=O)N1CCN(c2ncnc3c2C(C)CC3O)CC1)c1ccc(Cl)cc1 | < 9.49 nM
* Cn1nccc1Nc1nccc(-c2ccn(C(CO)c3ccc(Cl)c(F)c3)c(=O)c2)n1 (stereo not given) + CC(C)NCC(C(=O)N1CCN(c2ncnc3c2C(C)CC3O)CC1)c1ccc(Cl)cc1 | < 31.6 nM

q: Please indicate IC50 recorded for C=CCn1c(=O)c2cnc(Nc3ccc(N4CCN(C)CC4)cc3)nc2n1-c1cccc(C(C)(C)O)n1 + CC(C)NCC(C(=O)N1CCN(c2ncnc3c2C(C)CC3O)CC1)c1ccc(Cl)cc1
a: < 31.6 nM

q: For the compound CCCS(=O)(=O)Nc1ccc(F)c(C(=O)c2c[nH]c3ncc(-c4ccc(Cl)cc4)cc23)c1F + CC(C)NCC(C(=O)N1CCN(c2ncnc3c2C(C)CC3O)CC1)c1ccc(Cl)cc1 , report IC50.
a: < 31.6 nM
